# testName: protection of cells from dengue 2 killing – plate reader, single concentration, primary screen (AID 651640);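 also: 0% = median of neutral control wells and 100% = median of positive control wells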
# experimentalSetup: DENV2-infected cells, cytopathic effect rescue, at 9.99 µM, stronger effect = higher value
Hit rate of the full screen: of about 350,000 compounds, about 6,000 (1.7%) were called active. Not shown: some 5% with an inconclusive outcome. The sample holds actives, similar compounds and a random draw of the others, so the mix is not that of the screen.
property: CPE inhibition (%)
Report the value in % with no unit label.

compound	CPE inhibition, %
CC(=O)NCC1=C(c2ccc3ccccc3c2)C[C@@H]2CC[C@H]1N2Cc1ccco1	-2.04
CCOC(=O)[C@]12Cc3cc(OC)ccc3[C@H]1N(C(C)C)C(=O)c1ccccc12	28.6
C[C@]12CCC3C(CC[C@H]4[C@H](O)[C@H](O)CC[C@]34C)C1CCC2=O (stereo not given in full)	-1.57
COc1cccc(-c2ccc3n(c2=O)C[C@H]2[C@H](CO)[C@@H](C(=O)O)[C@@H]3N2C(=O)c2cnccn2)c1	0.125

Look up CPE inhibition for this compound: `CCOC(=O)[C@]12Cc3ccccc3[C@H]1N(C1CCCCC1)C(=O)c1cc(OC)ccc12` 12.6

---

# testName: protection of cells from dengue 2 killing – plate reader, single concentration, primary screen (AID 651640);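 also: 0% = median of neutral control wells and 100% = median of positive control wells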
# experimentalSetup: DENV2-infected cells, cytopathic effect rescue, at 9.99 µM, stronger effect = higher value
In all, about 350,000 compounds went through this assay and about 6,000 (1.7%) were called active. About 5% were inconclusive and are not listed. This is one part of a sample in which actives are shown more often than they occur.
property: CPE inhibition (%)
Report the value in % with no unit label.

compound	unitDescriptor	assayValue
C/C=C/c1ccc(C2[C@@H]3CN(S(C)(=O)=O)C[C@H]2N3)cc1 (stereo partly specified)	%	62.5
O=C(c1ccccc1)C(O)(CN1CCCCC1)c1ccccc1 (stereo unspecified)	%	9.29
C/C=C/c1ccc(C2[C@@H]3CN(Cc4cncnc4)C[C@H]2N3)cc1 (stereo partly specified)	%	3.65
C[C@]12CCCCC1=CC(=O)C1C2CC[C@@]2(C)C1C[C@@H](F)[C@@H]2O (stereo partly specified)	%	-4.28
O=C(CCC(=O)N1C[C@H]2C[C@@H](C1)c1cccc(=O)n1C2)NCc1ccccc1C(F)(F)F	%	25.4
COC(=O)C1=C(c2ccc(F)cc2OCc2ccccc2)C[C@@H]2CC[C@H]1N2C(=O)NCc1ccc(C(C)(C)C)cc1	%	-10.5
c1cc2c(cc1[C@H]1OC[C@H]3[C@@H]1CO[C@@H]3c1ccc3c(c1)OCO3)OCO2	%	-8.32
COC(=O)C1=C(c2ccc(F)cc2OCc2ccccc2)C[C@@H]2CC[C@H]1N2C(=O)NCc1ccc(Cl)cc1	%	91

Look up CPE inhibition for this compound: `COc1ccc(-c2ccc([C@H]3[C@H](CO)N4CCCCN(C(=O)Cc5ccncc5)C[C@@H]34)cc2)cc1` 40.9

Entry to check: `O=C(NC(=S)N1C[C@H]2C[C@H](C1)c1cccc(=O)n1C2)c1ccc(F)cc1` -11.6

Entry to check: `CC(C)CN1Cc2cc(N3CCCCC3)ccc2-n2nncc2C1` -1.07

Entry to check: `COc1cccc(-c2ccc([C@H]3[C@H]4CN(C(=O)Cc5ccncc5)CCCCN4[C@H]3CO)cc2)c1` 9.07

Entry to check: c1cc2c(cc1C1OCC3C(c4ccc5c(c4)OCO5)OCC13)OCO2 (stereo unspecified) 62

Entry to check: `COc1cc(OC)cc(C(=O)NCCN2CCC3(CC2)C(=O)NCN3c2ccccc2)c1` 5.39

Entry to check: `COc1ccc(C#Cc2ccc([C@H]3[C@H](CO)N4CCCCN(C(=O)Cc5ccccc5)C[C@@H]34)cc2)cc1` -26.2

Entry to check: `O=C(O)[C@H]1[C@H](CO)[C@H]2Cn3c(ccc(-c4ccccc4)c3=O)[C@@H]1N2S(=O)(=O)c1ccccc1F` 0.732

---

# testName: protection of cells from dengue 2 killing – plate reader, single concentration, primary screen (AID 651640);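 also: 0% = median of neutral control wells and 100% = median of positive control wells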
# experimentalSetup: DENV2-infected cells, cytopathic effect rescue, at 9.99 µM, stronger effect = higher value
Out of some 350,000 compounds screened, about 6,000 (1.7%) were called active. Another 5% or so got no clear call; they are omitted. The sample holds actives, similar compounds and a random draw of the others, so the mix is not that of the screen.
property: CPE inhibition (%)
Report the value in % with no unit label.

compound	unitDescriptor	assayValue
O=C(NC1CCCCC1)N1Cc2cc(N3CCCCC3)ccc2-n2nncc2C1	%	18.7
COc1ccc(C2C=C(C)Oc3c2c(=O)oc2ccccc32)cc1OC (stereo not given)	%	-10.4
Cc1cc(/C=C2/C(=O)NC(=O)N(Cc3ccco3)C2=O)c(C)n1-c1ccc(C(=O)O)cc1	%	-3.34
O=S(=O)(c1ccccc1)N1CCC2CCNC2C1 (stereo not given)	%	-0.751

API: the following record is the query input.
Look up CPE inhibition for this compound: `Cc1ccc(-n2c(C)cc(/C=C3\C(=O)NC(=O)N(C)C3=O)c2C)cc1C` -7.68
